Some molecules, each annotated with its measured IC50.
tested on: NCI-H460 cells; test: Cancer cell growth inhibition experiment (MTT assay); assay type: cell-based; details: Homo sapiens, lung cancer cell line, compounds 48 hours, cell viability by MTT assay

Past entries and their recorded results:
- Molecule: "O=C(C[C@H]1NCCC[C@@H]1O)Cn1cnc2ccc(-c3cc(F)cc(Cl)c3)cc21"
  IC50: "≤ 3 µM"
- Molecule: "Cc1cc(Cl)cc(-c2ccc3ncn(CC(=O)C[C@H]4NCCC[C@@H]4O)c3c2)c1"
  IC50: "3 to 10 µM"

Query string: // map O=C(C[C@H]1NCCC[C@@H]1O)Cn1cnc2cccc(-c3cccc(Cl)c3)c21 to recorded IC50 (system: NCI-H460 cells)
Result string: ≥ 10 µM

Query string: // map O=C(C[C@H]1NCCC[C@@H]1O)Cn1cnc2ncc(-c3cccc(Cl)c3)cc21 to recorded IC50 (system: NCI-H460 cells)
Result string: ≥ 10 µM

Query string: // map Cc1c(-c2ccc(Cl)cc2)ccc2c1ncn2CC(=O)C[C@H]1NCCC[C@@H]1O to recorded IC50 (system: NCI-H460 cells)
Result string: ≥ 10 µM

Query string: // map O=C(C[C@H]1NCCC[C@@H]1O)Cn1cnc2ccc(-c3ccccc3)cc21 to recorded IC50 (system: NCI-H460 cells)
Result string: 3 to 10 µM

Query string: // map Cc1c(-c2cscn2)ccc2c1ncn2CC(=O)C[C@H]1NCCC[C@@H]1O to recorded IC50 (system: NCI-H460 cells)
Result string: ≥ 10 µM

Query string: // map Cc1cccc(-c2ccc3ncn(CC(=O)C[C@H]4NCCC[C@@H]4O)c3c2)c1 to recorded IC50 (system: NCI-H460 cells)
Result string: 3 to 10 µM

Query string: // map O=C(C[C@H]1NCCC[C@@H]1O)Cn1cnc2cccc(-c3cccc(F)c3)c21 to recorded IC50 (system: NCI-H460 cells)
Result string: ≤ 3 µM

Query string: // map O=C(C[C@H]1NCCC[C@@H]1O)Cn1cnc2ccc(-c3ccccc3F)nc21 to recorded IC50 (system: NCI-H460 cells)
Result string: ≤ 3 µM

Query string: // map O=C(C[C@H]1NCCC[C@@H]1O)Cn1cnc2ccc(-c3ccc(Cl)cc3)cc21 to recorded IC50 (system: NCI-H460 cells)
Result string: 3 to 10 µM

Query string: // map COc1cc(Cl)cc(-c2ccc3ncn(CC(=O)C[C@H]4NCCC[C@@H]4O)c3c2)c1 to recorded IC50 (system: NCI-H460 cells)
Result string: 3 to 10 µM

Query string: // map Cc1c(-c2ccccc2Cl)ccc2c1ncn2CC(=O)C[C@H]1NCCC[C@@H]1O to recorded IC50 (system: NCI-H460 cells)
Result string: ≥ 10 µM

Query string: // map O=C(C[C@H]1NCCC[C@@H]1O)Cn1c(CO)nc2ccc(-c3cccc(C(F)(F)F)c3)cc21 to recorded IC50 (system: NCI-H460 cells)
Result string: ≤ 3 µM

Query string: // map O=C(C[C@H]1NCCC[C@@H]1O)Cn1cnc2c(N3CCCC3)nccc21 to recorded IC50 (system: NCI-H460 cells)
Result string: ≥ 10 µM

Query string: // map O=C(C[C@H]1NCCC[C@@H]1O)Cn1cnc2ccc(-c3cccc(F)c3)cc21 to recorded IC50 (system: NCI-H460 cells)
Result string: ≤ 3 µM

Query string: // map O=C(C[C@H]1NCCC[C@@H]1O)Cn1cnc2ccc(-c3cscn3)cc21 to recorded IC50 (system: NCI-H460 cells)
Result string: ≥ 10 µM

Query string: // map OC(C[C@H]1NCCC[C@@H]1O)Cn1cnc2ccc(-c3cccc(Cl)c3)cc21 (stereo partly drawn) to recorded IC50 (system: NCI-H460 cells)
Result string: ≥ 10 µM

Query string: // map O=C(C[C@H]1NCCC[C@@H]1O)Cn1cnc2cc(-c3cccc(Cl)c3)cnc21 to recorded IC50 (system: NCI-H460 cells)
Result string: ≥ 10 µM

Query string: // map O=C(C[C@H]1NCCC[C@@H]1O)Cn1cnc2ccc(-c3cccc(C(F)(F)F)c3)nc21 to recorded IC50 (system: NCI-H460 cells)
Result string: ≤ 3 µM

Query string: // map O=C(C[C@H]1NCCC[C@@H]1O)Cn1cnc2c(-c3ccccc3)cccc21 to recorded IC50 (system: NCI-H460 cells)
Result string: ≥ 10 µM

Query string: // map Cc1c(-c2cccc(F)c2)ccc2c1ncn2CC(=O)C[C@H]1NCCC[C@@H]1O to recorded IC50 (system: NCI-H460 cells)
Result string: ≥ 10 µM

Query string: // map OC(C[C@H]1NCCC[C@@H]1O)Cn1cnc2ccc(-c3cccc(Cl)c3)nc21 (stereo partly drawn) to recorded IC50 (system: NCI-H460 cells)
Result string: ≥ 10 µM

Query string: // map O=C(C[C@H]1NCCC[C@@H]1O)Cn1c(CO)nc2cc(-c3cccc(F)c3)ccc21 to recorded IC50 (system: NCI-H460 cells)
Result string: ≥ 10 µM

Query string: // map O=C(C[C@H]1NCCC[C@@H]1O)Cn1cnc2ccc(-c3ccccc3Cl)cc21 to recorded IC50 (system: NCI-H460 cells)
Result string: 3 to 10 µM
